Reported Cmax values for the following compounds.
Test: Plasma compound exposure in rats (tail bleed, day 6)
Type: in vivo
Settings: plasma, rat, 10 mg/kg po qd
property_label: Cmax (nM)

>>> print(df.to_string())
                                   compound  test_result
0  C=CC(=O)Nc1cccc(Nc2nc(Nc3ccc(OCCOC)cc3)ncc2F)c1 [Compound C]          644
1  CC#CC(=O)N1CC[C@]2(C1)C[C@H](n1nc(-c3cnn(Cc4ccccc4C(F)(F)F)c3)c(C(N)=O)c1N)C2 [Example 12]          111
2  CC#CC(=O)N1CC[C@]2(C1)C[C@H](n1nc(-c3cnn(Cc4cccc(C(F)(F)F)c4)c3)c(C(N)=O)c1N)C2 [Example 22]          170
3  C=CC(=O)N1CCC[C@@H](n2nc(-c3ccc(Oc4ccccc4)cc3)c3c(N)ncnc32)C1 [Compound A]          319

----------
Molecular target: human recombinant BTK (full length, His-tagged) (Homo sapiens (Human))
Sequence (Q06187 whole entry): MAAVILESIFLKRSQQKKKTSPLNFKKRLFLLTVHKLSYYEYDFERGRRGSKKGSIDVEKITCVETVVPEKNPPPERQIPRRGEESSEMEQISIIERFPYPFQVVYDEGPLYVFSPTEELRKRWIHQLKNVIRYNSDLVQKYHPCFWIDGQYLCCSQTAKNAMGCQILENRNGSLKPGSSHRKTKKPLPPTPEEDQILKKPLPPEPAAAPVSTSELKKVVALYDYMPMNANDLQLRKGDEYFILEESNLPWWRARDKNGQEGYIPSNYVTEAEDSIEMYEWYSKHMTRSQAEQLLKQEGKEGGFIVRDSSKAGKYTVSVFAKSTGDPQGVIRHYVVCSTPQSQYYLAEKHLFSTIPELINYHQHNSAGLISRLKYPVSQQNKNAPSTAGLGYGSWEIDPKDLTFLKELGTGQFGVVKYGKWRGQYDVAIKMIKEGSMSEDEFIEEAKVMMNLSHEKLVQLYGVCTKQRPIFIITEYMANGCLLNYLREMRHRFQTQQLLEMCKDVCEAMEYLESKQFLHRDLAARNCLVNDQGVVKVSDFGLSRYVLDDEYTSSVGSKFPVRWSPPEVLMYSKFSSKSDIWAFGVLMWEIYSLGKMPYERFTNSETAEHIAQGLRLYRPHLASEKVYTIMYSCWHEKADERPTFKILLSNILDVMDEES
Experiment: BTK Z'-LYTE assay;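 note: FRET readout of kinase phosphorylating a coumarin and fluorescein labelled synthetic peptide, detected via protease sensitivity of unphosphorylated versus phosphorylated substrate, incubated at 22 °C in 384-well plates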
Conditions: 25 μM ATP
pIC50: −log10 of the molar value.
# pIC50 values compiled below
property_label: pIC50

>>> df
                           substance_smiles  property_label  test_result
0  CC#CC(=O)N1CC[C@]2(C1)C[C@H](n1nc(-c3ccn(Cc4cccc(C(F)(F)F)c4)n3)c(C(N)=O)c1N)C2           pIC50         7.72
1  CC#CC(=O)N1CC[C@]2(C1)C[C@H](n1nc(-c3c(C)nn(Cc4cccc(C(F)(F)F)c4)c3C)c(C(N)=O)c1N)C2           pIC50         7.40
2  CC#CC(=O)N1CC[C@]2(C1)C[C@H](n1nc(-c3cnn(Cc4cccc(C5CC5)c4)c3)c(C(N)=O)c1N)C2           pIC50         9.10

----------
Biological target: human recombinant full length TEC (His-tagged) (Homo sapiens (Human), UniProt P42680)
Experiment: TEC Lanthscreen Eu Kinase Binding assay
Conditions: 1 nM TEC
property_label: IC50 (nM)

>>> df
                           substance_smiles                               system_name  property_label  test_result
0  CC#CC(=O)N1CC[C@]2(C1)C[C@H](n1nc(-c3cnn(Cc4cccc(Cl)c4)c3)c(C(N)=O)c1NC)C2  human recombinant full length TEC (His-tagged) (Homo sapiens (Human), UniProt P42680)            IC50           66
1  C=CC(=O)N1CC[C@]2(C1)C[C@H](n1nc(-c3cnn(Cc4cccc(C(F)(F)F)c4F)c3)c(C(N)=O)c1N)C2  human recombinant full length TEC (His-tagged) (Homo sapiens (Human), UniProt P42680)            IC50          430
2  CC#CC(=O)N1CC[C@]2(C1)C[C@H](n1nc(-c3cn(Cc4cccc(C(F)(F)F)c4)nc3C)c(C(N)=O)c1N)C2  human recombinant full length TEC (His-tagged) (Homo sapiens (Human), UniProt P42680)            IC50          160
3  CC#CC(=O)N1CC[C@]2(C1)C[C@H](n1nc(-c3cnn(Cc4cccc(C(F)F)c4)c3)c(C(N)=O)c1N)C2  human recombinant full length TEC (His-tagged) (Homo sapiens (Human), UniProt P42680)            IC50           22
4  CC#CC(=O)N1CC[C@]2(C1)C[C@H](n1nc(-c3cnn(Cc4ccc(F)c(C(F)(F)F)c4)c3)c(C(N)=O)c1N)C2  human recombinant full length TEC (His-tagged) (Homo sapiens (Human), UniProt P42680)            IC50           64
5  CC#CC(=O)N1CC[C@]2(C1)C[C@H](n1nc(-c3cnn(Cc4cccc(F)c4C(F)(F)F)c3)c(C(N)=O)c1N)C2  human recombinant full length TEC (His-tagged) (Homo sapiens (Human), UniProt P42680)            IC50          120
6  CC#CC(=O)N1CC[C@]2(C1)C[C@H](n1nc(-c3cnn(Cc4cccc(C(F)(F)F)c4C#N)c3)c(C(N)=O)c1N)C2  human recombinant full length TEC (His-tagged) (Homo sapiens (Human), UniProt P42680)            IC50          120

----------
So I've got log10 IC50 readings for UniProtKB Q06187, take a look.
property_label: log10 IC50 (log10 of the value in nM)

                                   compound  property_label  test_result
0  CC#CC(=O)N1CC[C@]2(C1)C[C@H](n1nc(-c3cnn(Cc4cccc(C(F)(F)F)n4)c3)c(C(N)=O)c1N)C2 [Example 14]      log10 IC50        -0.30
1  CC#CC(=O)N1CC[C@]2(C1)C[C@H](n1nc(-c3cnn(Cc4cccc(C(F)(F)F)c4F)c3)c(C(N)=O)c1N)C2 [Example 33]      log10 IC50        -0.40
2  CC#CC(=O)N1CC[C@]2(C1)C[C@H](n1nc(-c3cn(Cc4cccc(C)c4)nc3C)c(C(N)=O)c1N)C2 [Example 52]      log10 IC50         0.08
3  CC#CC(=O)N1CC[C@]2(C1)C[C@H](n1nc(-c3cnn(C(C)c4cccc(C(F)(F)F)c4)c3)c(C(N)=O)c1N)C2 (some centres unmarked) [Example 15]      log10 IC50         0.04
4  C=CC(=O)N1CC[C@]2(C1)C[C@H](n1nc(-c3cnn(Cc4cccc(C5CC5)c4)c3)c(C(N)=O)c1N)C2 [Example 43]      log10 IC50         0.48
5  CC#CC(=O)N1CC[C@]2(C1)C[C@H](n1nc(-c3cnn(Cc4ccccc4C(F)(F)F)c3)c(C(N)=O)c1N)C2 [Example 12]      log10 IC50        -0.30
6  CC#CC(=O)N1CC[C@]2(C1)C[C@H](n1nc(-c3cnn(Cc4cccc(C(F)F)c4)c3)c(C(N)=O)c1N)C2 [Example 36]      log10 IC50        -0.70
7  C=CC(=O)N1CC2(CC(n3nc(-c4cnn(Cc5ccccc5)c4)c(C(N)=O)c3N)C2)C1 [Example 48]      log10 IC50         1.20

----------
Biological target: human recombinant full length TEC (His-tagged) (Homo sapiens (Human))
Test: TEC Lanthscreen Eu Kinase Binding assay
Settings: 1 nM TEC
pIC50: −log10 of the molar value.
property_label: pIC50

In [3]: df
Out[3]:
                           substance_smiles  test_result
0  CC#CC(=O)N1CC[C@]2(C1)C[C@H](n1nc(-c3cnn(Cc4cccc(C(F)(F)F)c4)c3)c(C(N)=O)c1NC)C2         6.89
1  CC#CC(=O)N1CC[C@]2(C1)C[C@H](n1nc(-c3cnn(Cc4ccccc4)c3)c(C(N)=O)c1N)C2         7.70
2  C=CC(=O)Nc1cccc(Nc2nc(Nc3ccc(OCCOC)cc3)ncc2F)c1         8.17
3  CC#CC(=O)N1CC[C@]2(C1)C[C@H](n1nc(-c3cnn(Cc4cccc(C(F)(F)F)c4)c3)c(C(N)=O)c1N)C2         7.68
4  CC#CC(=O)N1CC[C@]2(C1)C[C@H](n1nc(-c3cnn(Cc4ccccc4F)c3)c(C(N)=O)c1N)C2         7.46
5  CC#CC(=O)N1CC[C@]2(C1)C[C@H](n1nc(-c3cnn(Cc4cc(F)ccc4Cl)c3)c(C(N)=O)c1N)C2         7.17
6  CC#CC(=O)N1CC[C@]2(C1)C[C@H](n1nc(-c3cnn(Cc4ccccc4C#N)c3)c(C(N)=O)c1N)C2         7.14

----------
Molecular target: human full length His-tagged BTK (Homo sapiens (Human))
Sequence (Q06187 whole entry): as above
Reported IC50 is given for each of the following compounds.
property_label: IC50 (nM)

                           substance_smiles                               system_name  property_label  test_result
0  CC#CC(=O)N1CC[C@]2(C1)C[C@H](n1nc(-c3cnn(Cc4cccc(C(F)(F)F)c4)c3)c(C(N)=O)c1NC)C2  human full length His-tagged BTK (Homo sapiens (Human))            IC50          1.3
1  C=CC(=O)N1CC[C@]2(C1)C[C@H](n1nc(-c3cnn(Cc4cccc(C(F)(F)F)c4F)c3)c(C(N)=O)c1N)C2  human full length His-tagged BTK (Homo sapiens (Human))            IC50          2.6
2  CC#CC(=O)N1CC[C@]2(C1)C[C@H](n1nc(-c3cnn(Cc4cc(F)ccc4C(F)(F)F)c3)c(C(N)=O)c1N)C2  human full length His-tagged BTK (Homo sapiens (Human))            IC50          0.9
3  CC#CC(=O)N1CC[C@]2(C1)C[C@H](n1nc(-c3cnn(Cc4cccc(Cl)c4)c3)c(C(N)=O)c1NC)C2  human full length His-tagged BTK (Homo sapiens (Human))            IC50          1.7
4  CC#CC(=O)N1CC[C@]2(C1)C[C@H](n1nc(-c3cnn(Cc4ccccc4C)c3)c(C(N)=O)c1N)C2  human full length His-tagged BTK (Homo sapiens (Human))            IC50          1.5
5  CC#CC(=O)N1CC[C@]2(C1)C[C@H](n1nc(-c3c(C)nn(Cc4cccc(C(F)(F)F)c4)c3C)c(C(N)=O)c1N)C2  human full length His-tagged BTK (Homo sapiens (Human))            IC50          5.8
6  CC#CC(=O)N1CC2(CC(n3nc(-c4cnn(Cc5cc(C)cc(C(F)(F)F)c5)c4)c(C(N)=O)c3N)C2)C1  human full length His-tagged BTK (Homo sapiens (Human))            IC50          7.9
